Molecular target: 5FW LecA (PA-IL) (Pseudomonas aeruginosa, UniProt Q05097)
Assay: PrOF NMR with 5-fluorotryptophan-labeled LecA
Please use satisfied for Kd under 5 mM and not satisfied for everything else, ties included.

>>> group("O=C(CC1CCCCC1)NO")
"satisfied"
>>> group("Cc1ccc(CCCC(=O)NO)cc1")
"satisfied"
>>> group("O=C(Cc1ccccc1)NO [compound 2, N-hydroxy-2-phenylacetamide]")
"not satisfied"
>>> group("NC(C(=O)NO)c1ccccc1 (centres unmarked)")
"not satisfied"

Ask: A record lists O=C(CCCc1ccccc1)NO [compound 35, N-hydroxy-4-phenylbutanamide] . Is its Kd below 5 mM?
Result: satisfied

###

Target: LecA (Pseudomonas aeruginosa)
Construct: made in house
Test: Competitive fluorescence polarization (FP) assay
Format: binding
Conditions: compared to MeGal at 10 mM (16 h)
Protocol: The FP assay was performed in a black 384-well plate (Greiner Bio-One, Germany, 781900) with the final volume of 20 µL as described previously. […] The fluorescence was measured with an excitation 590 nm and emission 675 nm filter[68] on a PheraStar FS plate reader (BMG Labtech GmbH, Germany). […] The percentage (%) of inhibition was calculated at the highest concentration compared with 10 mM MeGal set to 100%.
assayReadout: Inhibition in FP (%)
Quick note: give the figure in %, leave out the unit.

Some entries whose results are on file:
>>> observedresult("Cc1ccc(CCCC(=O)NO)cc1")
35
>>> observedresult("O=C(CCCc1ccc(O)cc1)NO")
39
>>> observedresult("O=C(Cc1ccccc1)NO [compound 2, N-hydroxy-2-phenylacetamide]")
18

So, "COc1ccc(CCCC(=O)NO)cc1" ? Its Inhibition in FP was 27

Measured Inhibition in FP of "O=C(CCCc1ccc([N+](=O)[O-])cc1)NO" : 4

###

Target: LecB (PA-IIL) (Pseudomonas aeruginosa, UniProt Q9HYN5)
Sequence (Q9HYN5 entry or part of it): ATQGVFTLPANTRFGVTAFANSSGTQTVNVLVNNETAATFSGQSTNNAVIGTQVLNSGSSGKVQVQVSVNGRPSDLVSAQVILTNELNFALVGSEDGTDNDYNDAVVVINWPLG
Test: 1H-15N TROSY NMR with 15N LecB
Protocol: […] All data were processed with NMRpipe[65] and analyzed with CcpNmr analysis. […] The changes in chemical shift perturbations (CSPs) were calculated according to Eq. (2):2 △δ=1/2△δH2+α△δN^2 in which δ is the difference in chemical shift (in ppm) and α is an empirical weighting factor of 0.14 for all amino acid backbone resonances. […]
assayReadout: pKd
Reminder that pKd is minus the log10 of a molar concentration.

// recorded pKd for O=C(O)C(C(=O)O)C1CCC(F)(F)C1 (stereo not shown) [compound 58] : 2.92

###

Form field: LE (one value per entry).
Molecular target: 5FW LecA (PA-IL) (Pseudomonas aeruginosa)
Construct: made in house
Experiment: PrOF NMR with 5-fluorotryptophan-labeled LecA
Type: binding
Details: ligand efficiency calculated from Kd for LecA, 310 K
Kindly provide the numeric value in kcal mol^−1 HA^−1 only, without the unit symbol.

>>> observedresult("O=C(CCCc1ccccc1)NO [compound 35, N-hydroxy-4-phenylbutanamide]")
0.26
>>> observedresult("O=C(CC1CCCCC1)NO")
0.30
>>> observedresult("NC(C(=O)NO)c1ccccc1 (stereo not shown)")
0.25

Would you kindly look at the next entry?
Please fill in: LE reported for "Cc1ccc(CCCC(=O)NO)cc1" = 0.25

###

Known pKd of a selection of compounds
Target: DC-SIGN CRD (CD209) (Homo sapiens)
Construct: the carbohydrate recognition domain (CRD) of DC-SIGN in ^1H-^15N HSQC/TROSY NMR experiments
Sequence (Q9NNX6 263-378 limits assumed): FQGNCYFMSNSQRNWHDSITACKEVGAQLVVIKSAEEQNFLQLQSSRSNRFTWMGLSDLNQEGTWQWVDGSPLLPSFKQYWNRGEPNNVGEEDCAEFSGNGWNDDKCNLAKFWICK
Assay: 1H-15N HSQC NMR with 15N DC-SIGN CRD
Settings: 15N DC-SIGN CRD, titration, one-site binding model, 30 mM CaCl2
Please report pKd as the negative decimal logarithm of the molar concentration, giving only the number.

>>> observedresult("O=C(O)C(C(=O)O)C1CCC(F)(F)C1 (centres unmarked)")
2.92

Please turn your attention to the following entry.
Measured pKd, "O=C(O)C(F)(CC1CCC1)C(=O)O" : 2.72

###

Target: 15N LecA (Pseudomonas aeruginosa, UniProt Q05097)
Construct: made in house
Sequence (Q05097 whole entry): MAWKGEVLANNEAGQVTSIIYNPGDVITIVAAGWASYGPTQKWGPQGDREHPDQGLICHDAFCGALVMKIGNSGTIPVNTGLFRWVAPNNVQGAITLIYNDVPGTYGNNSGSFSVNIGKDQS
Experiment: 1H-15N TROSY NMR with 15N LecA
Assay type: binding
Conditions: 4 mM analogs of 1, 1 mM marketed hydroxamates
assayReadout: binding to 15N LecA in TROSY NMR

>>> observedresult("CN(O)C(=O)Cc1ccccc1 [compound 8]")
"not tolerated"
>>> observedresult("O=C(CCCc1ccccc1)NO [compound 35, N-hydroxy-4-phenylbutanamide]")
"preserved the binding"
>>> observedresult("CONC(=O)Cc1ccccc1 [compound 7]")
"not tolerated"
>>> observedresult("O=C(Cc1ccccc1)NO [compound 2, N-hydroxy-2-phenylacetamide]")
"preserved the binding"
>>> observedresult("O=C(COCCc1ccccc1)NO [compound 43]")
"not tolerated"

Below: the item to evaluate.
Recorded result, O=C(CC=Cc1ccccc1)NO [compound 42] , binding to 15N LecA in TROSY NMR: not tolerated

###

Molecular target: LecA (Pseudomonas aeruginosa)
Construct: made in house
Assay: Competitive fluorescence polarization (FP) assay
Assay type: binding
Conditions: read-out: Inhibition in FP, compared to MeGal at 10 mM (16 h)
Description: The FP assay was performed in a black 384-well plate (Greiner Bio-One, Germany, 781900) with the final volume of 20 µL as described previously. […] The fluorescence was measured with an excitation 590 nm and emission 675 nm filter[68] on a PheraStar FS plate reader (BMG Labtech GmbH, Germany). […] The percentage (%) of inhibition was calculated at the highest concentration compared with 10 mM MeGal set to 100%.
assayReadout: inhibition at 10000 µM (%)
Number only, in %; omit the unit.

Below, each entry is followed by its recorded inhibition at 10000 µM result.
>>> observedresult("O=C(COCCc1ccccc1)NO")
8
>>> observedresult("O=C(CCCc1ccccc1)NO [compound 35, N-hydroxy-4-phenylbutanamide]")
26
>>> observedresult("O=C(CC1CCCCC1)NO")
21

The reported value for "O=C(COCCCc1ccccc1)NO" in terms of inhibition at 10000 µM is 17

Entry "O=C(CC=Cc1ccccc1)NO" , inhibition at 10000 µM reported as 13

Form: molecule = O=C(Cc1ccccc1)NO [compound 2, N-hydroxy-2-phenylacetamide] ; inhibition at 10000 µM = 18.3

What the record says about "COc1cccc(C(O)=CC(=O)NO)c1" : inhibition at 10000 µM is 9

###

We begin with a simple list: items and their reported inhibition at 10000 µM.
Target: LecA (Pseudomonas aeruginosa, UniProt Q05097)
Construct: made in house
Sequence (Q05097 whole entry): as above
Assay: Competitive fluorescence polarization (FP) assay
Type: binding
Details: read-out: Inhibition in FP, compared to MeGal at 10 mM (16 h)

>>> observedresult("Cc1ccc(CCCC(=O)NO)cc1")
"27 to 39%"
>>> observedresult("O=C(CCCc1ccc(O)cc1)NO")
"27 to 39%"
>>> observedresult("COc1ccc(CCCC(=O)NO)cc1")
"27 to 39%"
>>> observedresult("O=C(CCCc1cccs1)NO")
"25%"
>>> observedresult("O=C(CCCc1ccc(Br)cc1)NO")
"25%"

API: the following record is the query input.
Looking up "CN(O)C(=O)Cc1ccccc1" , I see its inhibition at 10000 µM listed as 20%

Recorded values, source paper PMC9814205.
